# PROTOCOL: Antiproliferative activity against human WI38 cells incubated for 24 hrs by MTT assay
# Assay type: cell-based, WI-38
# EXPERIMENTAL_PARAMETERS: read-out: LD50
In this section, each of the compounds is paired with its reported CC50 at 24 h.

COMPOUND: O=C(/C=C/c1ccc([N+](=O)[O-])cc1)c1ccc(OCc2cn([C@@H]3O[C@H](CO)[C@@H](O)[C@H](O)[C@H]3O)nn2)cc1
MEASUREMENT_UNIT: µM
CC50 at 24 h: 64

COMPOUND: COc1cc(/C=C/C(=O)c2ccc(OCc3cn([C@@H]4O[C@H](CO)[C@@H](O)[C@H](O)[C@H]4O)nn3)cc2)cc(OC)c1OC
MEASUREMENT_UNIT: µM
CC50 at 24 h: 54

COMPOUND: COc1cc([C@@H]2c3cc4c(cc3[C@@H](O[C@@H]3O[C@@H]5CO[C@@H](C)O[C@H]5[C@H](O)[C@H]3O)[C@H]3COC(=O)[C@H]23)OCO4)cc(OC)c1O [ETOPOSIDE]
MEASUREMENT_UNIT: µM
CC50 at 24 h: 36

COMPOUND: COc1cc(/C=C/C(=O)c2ccc(C#N)cc2)ccc1OCc1cn([C@@H]2O[C@H](CO)[C@@H](O)[C@H](O)[C@H]2O)nn1
MEASUREMENT_UNIT: µM
CC50 at 24 h: 88

COMPOUND: CC(=O)O[C@H]1C(=O)[C@@]2(C)[C@H]([C@H](OC(=O)c3ccccc3)[C@]3(O)C[C@H](OC(=O)[C@H](O)[C@@H](NC(=O)c4ccccc4)c4ccccc4)C(C)=C1C3(C)C)[C@]1(OC(C)=O)CO[C@@H]1C[C@@H]2O [PACLITAXEL]
MEASUREMENT_UNIT: µM
CC50 at 24 h: 35

---

# PROTOCOL: Selectivity index, ratio of LD50 for human WI38 cells to LD50 for human MCF7 cells
# Type: toxicity
# EXPERIMENTAL_PARAMETERS: WI38 cells and MCF7 cells, read-out: Selectivity Index
QUANTITY_NAME: selectivity ratio

SMILES_RECORD: COc1cc(/C=C/C(=O)c2ccc(C#N)cc2)ccc1OCc1cn([C@@H]2O[C@H](CO)[C@@H](O)[C@H](O)[C@H]2O)nn1
MEAS_VALUE: 1.13

SMILES_RECORD: COc1cc(/C=C/C(=O)c2ccccc2)ccc1OCc1cn([C@@H]2O[C@H](CO)[C@@H](O)[C@H](O)[C@H]2O)nn1
MEAS_VALUE: 0.8

SMILES_RECORD: CN(C)c1ccc(/C=C/C(=O)c2ccc(OCc3cn([C@@H]4O[C@H](CO)[C@@H](O)[C@H](O)[C@H]4O)nn3)cc2)cc1
MEAS_VALUE: 1.9

SMILES_RECORD: COc1cc(/C=C/C(=O)c2ccc([N+](=O)[O-])cc2)ccc1OCc1cn([C@@H]2O[C@H](CO)[C@@H](O)[C@H](O)[C@H]2O)nn1
MEAS_VALUE: 0.99

SMILES_RECORD: O=C(/C=C/c1ccccc1Cl)c1ccc(OCc2cn([C@@H]3O[C@H](CO)[C@@H](O)[C@H](O)[C@H]3O)nn2)cc1
MEAS_VALUE: 0.94

SMILES_RECORD: O=C(/C=C/c1ccc(OCc2ccccc2)cc1)c1ccc(OCc2cn([C@@H]3O[C@H](CO)[C@@H](O)[C@H](O)[C@H]3O)nn2)cc1
MEAS_VALUE: 0.86

SMILES_RECORD: COc1ccc(/C=C/C(=O)c2ccc(OCc3cn([C@@H]4O[C@H](CO)[C@@H](O)[C@H](O)[C@H]4O)nn3)cc2)cc1
MEAS_VALUE: 1.36
